- protocolNotes: qHTS assay for identifying genotoxic compounds that show differential cytotoxicity against isogenic chicken DT40 cell lines with known DNA damage response pathways - Rev3 mutant cell line (AID 743014); further: nearly all actives have a fitted effect of over 55% in size
- measurementConditions: chicken DT40 Rev3-/- viability, CellTiter-Glo, 40 h; series mostly up to 68.4 µM
Inconclusive results are not listed. The source made the active and inactive calls. The call rests on the fitted dose curve; in most records, active means well fitted cell-killing curve with a large enough effect in the repeat runs; inconclusive means weak or mixed curves, or effect the other way; inactive means no such curve, though single readings can be large or run the other way.
Classes used: 1 = active, -1 = inactive

compound	className
CCC1OCC(COc2ccc(Oc3ccccc3)cc2)O1 (configuration not stated)	-1
CC(C)(C)C(=O)OCOC(=O)[C@@H]1N2C(=O)[C@@H](NC(=O)[C@H](N)c3ccccc3)[C@H]2SC1(C)C	-1
CCN(CCC#N)c1ccc(N=Nc2c(Cl)cc([N+](=O)[O-])cc2Cl)cc1	1
N#CSc1ccc(N)c([N+](=O)[O-])c1	1
Oc1cccc2cc3cccc(O)c3c(O)c12	-1
CCCC(=O)OC[C@@H](OC(=O)CCC)[C@@H](OC(=O)CCC)[C@H](Cn1c2nc(=O)[nH]c(=O)c-2nc2cc(C)c(C)cc21)OC(=O)CCC	1
Cc1ccc2oc(CN(Cc3ccccc3)C(=O)Nc3c(F)cc(F)cc3F)c(-c3ccc(Cl)cc3)c2c1	1

----------
- protocolNotes: qHTS assay to identify small molecule antagonists of the retinoic acid receptor (RAR) signaling pathway (AID 1159552; further: nearly all actives have a fitted effect of over 50% in size)
- measurementConditions: C3RL4 RARE luciferase reporter, retinol-stimulated, 6 h; series mostly up to 92.4 µM
- Source text: National Center for Advancing Translational Sciences [NCATS] NIH Chemical Genomics Center [NCGC] U.S. Environmental Protection Agency [EPA] National Institutes of Environmental Health Sciences [NIEHS] National Toxicology Program [NTP] U.S. Food and Drug Administration [FDA] […]
Records with an inconclusive call do not appear. Active and inactive are the calls of the source. Calls follow the shape of the dose curve; as a rule, active = well fitted inhibition curve with a large enough effect in the repeat runs; inconclusive = weak or mixed curves, or effect the other way; inactive = no such curve, though single readings can be large or run the other way.
Classes used: active, inactive

CN1CCN(CCC(=O)N2c3ccccc3Sc3ccc(C(F)(F)F)cc32)CC1 active
C[n+]1cc2c3c(ccc2c2ccc4cc5c(cc4c21)OCO5)OCO3 active
CC(C)(C)c1ccc(C(=O)CCCN2CCC(OC(c3ccccc3)c3ccccc3)CC2)cc1 active
CC(C)=CCOc1ccc(/C=C/C(=O)c2ccc(OCC=C(C)C)cc2OCC(=O)O)cc1 inactive
CCCCCCOC(=O)c1ccc(O)cc1 inactive
Clc1ccccc1C(c1ccccc1)(c1ccccc1)n1ccnc1 active

----------
- protocolNotes: qHTS RealTime-Glo MT Cell Viability Assay in HepG2 cells - 16 hour (AID 1224885); further: nearly all actives have a fitted effect of over 50% in size
- measurementConditions: RealTime-Glo luminescence; series mostly up to 76.8 µM
- Text: U.S. Tox21 Program National Center for Advancing Translational Sciences [NCATS] NIH Chemical Genomics Center [NCGC] U.S. Environmental Protection Agency [EPA] National Institutes of Environmental Health Sciences [NIEHS] National Toxicology Program [NTP] U.S. Food and Drug Administration [FDA] Tox21 Assay Overview: Measure of cell viability is critical in the cell-base assay. Analysis of cell viability is necessary for the characterization of cell responses to cytotoxic drugs and environmental stress. […]
Results filed as inconclusive are left out. Activity calls are given as the source filed them. Calls follow the shape of the dose curve; as a rule, active = well fitted cell-killing curve with a large enough effect in the repeat runs; inconclusive = weak or mixed curves; inactive = flat fitted curve, though single readings scatter.
Classes used: TRUE (active), FALSE (inactive)

O=[N+]([O-])c1cc(Cl)c(Cl)c(Cl)c1Cl FALSE
CN(C)CCCOC1(Cc2ccccc2)CCCCCC1 FALSE
C[C@@H](NCCCc1cccc(C(F)(F)F)c1)c1cccc2ccccc12 TRUE
O=C(c1ccc(F)cc1)C1CCN(CCn2c(=O)[nH]c3ccccc3c2=O)CC1 FALSE
CCCCCCCCn1sc(Cl)c(Cl)c1=O TRUE
Oc1ccc2cc(SSc3ccc4cc(O)ccc4c3)ccc2c1 FALSE
